Reference for the values: PubChem BioAssay (NCI)

Test system: COLO 205 colon
Measurement Notes: NCI tumour cell line growth inhibition, 48 h
Short version: TGI at least 10 µM is Y, less is N.

Prompt line: I'd appreciate it if you could say whether N#Cc1cc([N+](=O)[O-])ccc1NC(=O)C(=O)C(C(=O)c1ccc2ccccc2c1)C1OCc2ccccc21 (stereo unspecified) has TGI at least equal to 10 µM.
Response line: Y

Prompt line: Field entry: COc1cc(C(O)C(=O)c2cnc3cc([N+](=O)[O-])ccc3n2)ccc1O (stereo unspecified)
Response line: Y

Prompt line: What do we get for CN(C)c1ccc(Nc2c3ccccc3nc3cc(NC(=O)CCN4CCCC4)ccc23)cc1 ?
Response line: N

Prompt line: Same question, CCSc1ccc([C@@H]2[C@@H](N)C(=O)N2c2cc(OC)c(OC)c(OC)c2)cc1 this time
Response line: Y

Prompt line: Quick one: COc1cc(C(=O)O/N=C(\N)Cc2cccc3ccccc23)cc(OC)c1OC
Response line: Y

Prompt line: What about C1=CN2C[n+]3ccc4ccccc4c3N=C2c2ccccc21 ?
Response line: N

Prompt line: Okay, and O=C1CCNC(=O)NC1 ?
Response line: Y

Prompt line: Now try Cc1ccc2c(=O)cc(Cc3csc4ccccc34)[nH]c2n1 .
Response line: Y

Prompt line: Next up: CN1C=COC1N=C1CCCCC1 (stereo unspecified)
Response line: Y

Prompt line: Note, next up: Oc1ccc2ccccc2c1N=Nc1ccc(Cl)cc1
Response line: Y

Prompt line: Similarly, CN(C)CC1CCCc2ccccc2C1=O (stereo unspecified) ?
Response line: Y

====

Tested on: OVCAR-5 ovarian
Measurement Notes: NCI tumour cell line growth inhibition, 48 h
Metric: GI50

Prompt line: # get_value(readout='GI50', item= Nc1nc(-c2ccc(Cl)cc2)cc(-c2ccc(Cl)cc2)c1-c1nc2ccccc2o1 )
Response line: 20.7 µM

Prompt line: Next entry: O=C(c1ccco1)c1nc2cc(C(F)(F)F)ccc2[n+]([O-])c1C(F)(F)F
Response line: 31.5 µM

Prompt line: Could you do the same for O=C(Oc1ccccc1Cl)c1ccccc1Nc1cccc(C(F)(F)F)c1 , please?
Response line: 30.6 µM

Prompt line: Also C=C(C)[C@@H]1CC[C@]2(C(=O)O)CC[C@]3(C)[C@H](CC[C@@H]4[C@@]5(C)C/C(=C/c6cccc(I)c6)C(=O)C(C)(C)[C@@H]5CC[C@]43C)[C@@H]12 , if possible.
Response line: 3.19 µM

Prompt line: Try this compound too: COc1cc(-c2nc(-c3ccc(-c4nc5ccc(F)cc5[nH]4)cc3)no2)cc(OC)c1OC
Response line: 5.59 µM

Prompt line: Entry O=C1NC(=O)[C@@H](c2c[nH]c3ccccc23)[C@@H]1c1c[nH]c2ccccc12 please
Response line: > 25 µM

Prompt line: Would you mind doing COc1ccc2c(c1)C(=O)c1c-2c(N2CCN(C(=O)CNCCN(C)C)CC2)nc2ccccc12 as well?
Response line: 2.2 µM

Prompt line: Same read-out for CC[C@H](C)[C@H](NC(=O)NC(C)(C)C)C(=O)N(C)[C@H](C[C@@H](OC(C)=O)c1nc(C(=O)N[C@@H](Cc2ccccc2)C[C@H](C)C(=O)OC)cs1)C(C)C ?
Response line: 2.4 µM

====

Tested on: IGROV1 ovarian
Measurement Notes: NCI tumour cell line growth inhibition, 48 h
Metric: GI50

Prompt line: Look up GI50 for this molecule: CCOC(=O)c1ccccc1SC(C[N+](=O)[O-])c1ccccc1 (centres undefined)
Response line: 3880 nM

Prompt line: Then what about the molecule COc1ccc2c(c1)C(=O)c1c-2c(N2CCN(C(=O)CNCCN(C)C)CC2)nc2ccccc12 ?
Response line: 1110 nM

Prompt line: Repeat with CCCCCCCCCCC[C@@H](C[C@H]1OC(=O)[C@H]1CCCCCC)OC(=O)[C@@H](CC(C)C)NC=O
Response line: 7620 nM

Prompt line: CC[C@H](C)[C@H](NC(=O)NC(C)(C)C)C(=O)N(C)[C@H](C[C@@H](OC(C)=O)c1nc(C(=O)N[C@@H](Cc2ccccc2)C[C@H](C)C(=O)OC)cs1)C(C)C , same question.
Response line: 556 nM
